// data source = ChEMBL document CHEMBL5154929

assay: Selectivity index, ratio of IC50 for human L02 cells to IC50 for human A-375 cells; format: toxicity; conditions: L02 cells and A-375 cells, read-out: Ratio IC50
reported-endpoint: selectivity ratio

The molecule listed as COc1cc([C@@H]2c3cc4c(cc3[C@@H](O[C@@H]3O[C@@H]5CO[C@@H](C)O[C@H]5[C@H](O)[C@H]3O)[C@H]3COC(=O)[C@H]23)OCO4)cc(OC)c1O [ETOPOSIDE] shows selectivity ratio equal to < 5

* * *

Form field: AUC (one value per entry).
experiment: AUC in Kunming mouse plasma at 10 mg/kg, iv administered as single dose measured after 5 to 360 mins by HPLC analysis; assay type: ADME, organism-based; design: time upper 360 min, time lower 5 min, dose 10 mg/kg, route iv
State the answer as a number, implicitly in ng·h/mL.

compound: O=C1c2c[n+]([O-])c3ccccc3c2C(=O)c2c1c1ccccc1n2Cc1cn([C@@H]2C[C@H](O)[C@@H](CO)O2)nn1
readout-units: ng·h/mL
AUC: 48000

Moving on to the next compound.
The compound listed as COc1cc([C@@H]2c3cc4c(cc3[C@@H](O[C@@H]3O[C@@H]5CO[C@@H](C)O[C@H]5[C@H](O)[C@H]3O)[C@H]3COC(=O)[C@H]23)OCO4)cc(OC)c1O [ETOPOSIDE] shows AUC equal to 6830
